The reported numbers originate from the supplement of paper PMC10567573.

B1: RAB11A (parent)
chain: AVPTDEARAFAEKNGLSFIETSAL

# Variants of: B1
# measurement-notes: protein stability index of a GFP-peptide fusion (GPS, HEK-293T) (PSI 1-6); higher = more stable;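 further: lentivirally expressed fusions sorted by FACS into six bins by GFP to DsRed ratio, PSI derived from sequencing read proportions per bin multiplied by bin number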
# condition-parameters: c terminus: a fixed tail appended

mutant-designation: L16F
protein stability index: 1.91
//
mutant-designation: A23E
protein stability index: 3.68
//
mutant-designation: P3E
protein stability index: 2.47
//
mutant-designation: R8D
protein stability index: 2.82
//
mutant-designation: L24V
protein stability index: 3.31
//
mutant-designation: E6N
protein stability index: 2.24
//
mutant-designation: G15C
protein stability index: 2.59
//
mutant-designation: I19T
protein stability index: 4.17
//
mutant-designation: E6F
protein stability index: 1.73
//
mutant-designation: V2L
protein stability index: 2.48
//
mutant-designation: R8M
protein stability index: 2.4
//
mutant-designation: D5H
protein stability index: 2.33
//
mutant-designation: S17C
protein stability index: 2.52
//
mutant-designation: T4L
protein stability index: 2.79
//
mutant-designation: L16E
protein stability index: 4.73
//
mutant-designation: A7V
protein stability index: 2.25
//
mutant-designation: V2T
protein stability index: 2.47
//
mutant-designation: L24W
protein stability index: 2.72
//
mutant-designation: G15S
protein stability index: 2.06
//
mutant-designation: A23D
protein stability index: 4.18
//
mutant-designation: T21S
protein stability index: 3.11
//
mutant-designation: A1H
protein stability index: 2.63
//
mutant-designation: E12V
protein stability index: 2.3
//
mutant-designation: A23I
protein stability index: 1.65
//
mutant-designation: G15V
protein stability index: 2.64
//
mutant-designation: L16H
protein stability index: 4.3
//
mutant-designation: F10I
protein stability index: 2.44
//
mutant-designation: F18T
protein stability index: 4.32
//
mutant-designation: L24S
protein stability index: 4.39
//
mutant-designation: I19V
protein stability index: 3
//
mutant-designation: T21E
protein stability index: 4.34
//
mutant-designation: F18H
protein stability index: 4.72
//
mutant-designation: E12C
protein stability index: 2.85
//
mutant-designation: F10D
protein stability index: 3.86
//
mutant-designation: S17M
protein stability index: 2.81
//
mutant-designation: A9D
protein stability index: 2.78
//
mutant-designation: A1C
protein stability index: 1.45
//
mutant-designation: E6L
protein stability index: 1.6
//
mutant-designation: F10N
protein stability index: 2.9
//
mutant-designation: E12P
protein stability index: 1.88
//
mutant-designation: N14Q
protein stability index: 2.85
//
mutant-designation: A7N
protein stability index: 2.33
//
mutant-designation: A1M
protein stability index: 2.41
//
mutant-designation: F18M
protein stability index: 3.93
//
mutant-designation: I19S
protein stability index: 4.41
//
mutant-designation: V2N
protein stability index: 2.52
